Entries and their abundance fitness
B1: Protein S100-G, residues 1 to 79; numbered along this chain, P02633 (parent)
chain: MSAKKSPEELKGIFEKYAAKEGDPNQLSKEELKLLLQTEFPSLLKGPSTLDELFEELDKNGDGEVSFEEFQVLVKKISQ

variants of: B1; test: abundance fitness (aPCA) (normalised: wild type 0, dead -1); higher = more abundant; growth selection in yeast, the domain comes from the species named; conditions: Bos taurus
Quantity Name: abundance fitness

[
  {
    "Sequence Variant": "K59D",
    "Readout Number": -0.022
  },
  {
    "Sequence Variant": "Q79V",
    "Readout Number": -0.086
  },
  {
    "Sequence Variant": "E9G",
    "Readout Number": -0.108
  },
  {
    "Sequence Variant": "K29H",
    "Readout Number": 0.06
  },
  {
    "Sequence Variant": "Q79N",
    "Readout Number": -0.154
  },
  {
    "Sequence Variant": "S28Q",
    "Readout Number": -0.008
  },
  {
    "Sequence Variant": "F14Y",
    "Readout Number": 0.028
  },
  {
    "Sequence Variant": "E39C",
    "Readout Number": -0.295
  },
  {
    "Sequence Variant": "L34D",
    "Readout Number": 0.113
  },
  {
    "Sequence Variant": "D62S",
    "Readout Number": 0.043
  },
  {
    "Sequence Variant": "E8L",
    "Readout Number": -0.029
  },
  {
    "Sequence Variant": "T49E",
    "Readout Number": -0.026
  },
  {
    "Sequence Variant": "K16V",
    "Readout Number": -0.179
  },
  {
    "Sequence Variant": "L43M",
    "Readout Number": 0.011
  },
  {
    "Sequence Variant": "I77L",
    "Readout Number": -0.073
  },
  {
    "Sequence Variant": "K75G",
    "Readout Number": -0.022
  },
  {
    "Sequence Variant": "E15K",
    "Readout Number": -0.031
  }
]
